IL6 Expression Levels: recorded values
System: iPS(Foreskin)-4-derived d8 HPTC-like cells
Settings: human, 16 h, 10 μg/ml
endpoint.name: IL6 Expression Levels

smiles.input	result
CO[C@H]1/C=C/O[C@@]2(C)Oc3c(C)c(O)c4c(O)c(c(/C=N/N5CCN(C)CC5)c(O)c4c3C2=O)NC(=O)/C(C)=C\C=C\[C@H](C)[C@H](O)[C@@H](C)[C@@H](O)[C@@H](C)[C@H](OC(C)=O)[C@@H]1C	4.5 ± 0.3
O=c1[nH]cc(F)c(=O)[nH]1	6.4 ± 0.3
CC(C)[C@H](N)C(=O)OCCOCn1cnc2c(=O)[nH]c(N)nc21	1.3 ± 0.1
CC(=O)Nc1ccc(O)cc1	1.2 ± 0.1

====

Test system: iPS(Foreskin)-4-derived d8 HPTC-like cells
Conditions: human, 16 h, 10 μg/ml
endpoint.name: IL6 Expression Levels

smiles.input	endpoint.name	result
C=CC[C@@H]1/C=C(\C)C[C@H](C)C[C@H](OC)[C@H]2O[C@@](O)(C(=O)C(=O)N3CCCC[C@H]3C(=O)O[C@H](/C(C)=C/[C@@H]3CC[C@@H](O)[C@H](OC)C3)[C@H](C)[C@@H](O)CC1=O)[C@H](C)C[C@@H]2OC	IL6 Expression Levels	6.1 ± 0.2
CCC[C@@H]1C[C@@H](C(=O)N[C@@H]([C@H]2O[C@H](SC)[C@H](O)[C@@H](O)[C@H]2O)[C@@H](C)O)N(C)C1	IL6 Expression Levels	1.3 ± 0.1
COc1ccc(C[C@H](N)C(=O)N[C@H]2[C@@H](O)[C@H](n3cnc4c(N(C)C)ncnc43)O[C@@H]2CO)cc1	IL6 Expression Levels	14.1 ± 1.2
CCOc1ccc(NC(C)=O)cc1	IL6 Expression Levels	7.0 ± 1.1

====

Test system: iPS(Foreskin)-4-derived d8 HPTC-like cells
Settings: human, 16 h, 1 μg/ml
IL8 Expression Levels: recorded values
endpoint.name: IL8 Expression Levels

                               smiles_input                            assayed_target          endpoint_name  result_number
0  NC[C@H]1O[C@H](O[C@H]2[C@H](O)[C@@H](O[C@H]3O[C@H](CO)[C@@H](O)[C@H](N)[C@H]3O)[C@H](N)C[C@@H]2N)[C@H](N)C[C@@H]1O  iPS(Foreskin)-4-derived d8 HPTC-like cells  IL8 Expression Levels            0.5
1             COc1ccc2[nH]cc(CCNC(C)=O)c2c1  iPS(Foreskin)-4-derived d8 HPTC-like cells  IL8 Expression Levels            9.8
2                   O=c1[nH]cc(F)c(=O)[nH]1  iPS(Foreskin)-4-derived d8 HPTC-like cells  IL8 Expression Levels            7.4
3                      CCOc1ccc(NC(C)=O)cc1  iPS(Foreskin)-4-derived d8 HPTC-like cells  IL8 Expression Levels           23.3
4  CCC[C@@H]1C[C@@H](C(=O)N[C@@H]([C@H]2O[C@H](SC)[C@H](O)[C@@H](O)[C@H]2O)[C@@H](C)O)N(C)C1  iPS(Foreskin)-4-derived d8 HPTC-like cells  IL8 Expression Levels            1.2
5  NC(=O)c1ncn([C@@H]2O[C@H](CO)[C@@H](O)[C@H]2O)n1  iPS(Foreskin)-4-derived d8 HPTC-like cells  IL8 Expression Levels            1.1
6  CC(C)[C@H](N)C(=O)OCCOCn1cnc2c(=O)[nH]c(N)nc21  iPS(Foreskin)-4-derived d8 HPTC-like cells  IL8 Expression Levels            1.5
7                                  NCC(=O)O  iPS(Foreskin)-4-derived d8 HPTC-like cells  IL8 Expression Levels            1.6
8                        CC(=O)Nc1ccc(O)cc1  iPS(Foreskin)-4-derived d8 HPTC-like cells  IL8 Expression Levels            0.8

====

Tested on: iPS(Foreskin)-4-derived d8 HPTC-like cells
Conditions: 1,000 μg/ml, overnight (16 h), qPCR, normalized to vehicle control (=1), mean +/- s.d., n=3

compound	IL8 Expression Levels
O=[As]O[As]=O (centres unmarked) [Arsenic (III) oxide]	3.9
CN[C@H](CC(C)C)C(=O)N[C@H]1C(=O)N[C@@H](CC(N)=O)C(=O)N[C@H]2C(=O)N[C@H]3C(=O)N[C@H](C(=O)N[C@H](C(=O)O)c4cc(O)cc(O)c4-c4cc3ccc4O)[C@H](O)c3ccc(c(Cl)c3)Oc3cc2cc(c3O[C@@H]2O[C@H](CO)[C@@H](O)[C@H](O)[C@H]2O[C@H]2C[C@](C)(N)[C@H](O)[C@H](C)O2)Oc2ccc(cc2Cl)[C@H]1O	98.5
[Cl][Cd][Cl] [Cadmium chloride]	20.5
[Bi+3].[Bi+3].[O-2].[O-2].[O-2] [Bismuth (III) oxide]	192.7
CC(=O)[O-].CC(=O)[O-].[Pb+2] [Lead acetate]	29.4
COc1cccc2c1cc([N+](=O)[O-])c1c(C(=O)O)cc3c(c12)OCO3	1.6
[Cl][Au] [Gold (I) chloride]	1.2
[K+].[K+].[O]=[Cr](=[O])([O-])[O][Cr](=[O])(=[O])[O-] [Potassium dichromate]	1.2

====

Tested on: iPS(Foreskin)-4-derived d8 HPTC-like cells
Details: human, 16 h, 1 μg/ml

molecule	IL6 Expression Levels
CCC[C@@H]1C[C@@H](C(=O)N[C@@H]([C@H]2O[C@H](SC)[C@H](O)[C@@H](O)[C@H]2O)[C@@H](C)O)N(C)C1 [Lincomycin]	1.2
CCOc1ccc(NC(C)=O)cc1 [Phenacetin]	7.2
CO[C@H]1/C=C/O[C@@]2(C)Oc3c(C)c(O)c4c(O)c(c(/C=N/N5CCN(C)CC5)c(O)c4c3C2=O)NC(=O)/C(C)=C\C=C\[C@H](C)[C@H](O)[C@@H](C)[C@@H](O)[C@@H](C)[C@H](OC(C)=O)[C@@H]1C [Rifampicin]	5.8
C[C@H]1O[C@H](O[C@H]2[C@H](O)[C@@H](O)[C@@H](O[C@H]3[C@H](O)[C@@H](O)C(O)O[C@@H]3CO)O[C@@H]2CO)[C@H](O)[C@@H](O)[C@@H]1N[C@H]1C=C(CO)[C@@H](O)[C@H](O)[C@H]1O (stereo partly drawn) [Acarbose]	1.2
CC(=O)Nc1ccc(O)cc1 [Acetaminophen]	1.3
O=c1[nH]cc(F)c(=O)[nH]1 [5-Fluorouracil]	6.2

====

System: iPS(Foreskin)-4-derived d8 HPTC-like cells
Conditions: 1 μg/ml, overnight (16 h), qPCR, normalized to vehicle control (=1), mean +/- s.d., n=3
endpoint.name: IL6 Expression Levels

molecule	endpoint.name	result
[Cl][Cd][Cl] [Cadmium chloride]	IL6 Expression Levels	3.6 ± 0.4
[Cl][Cu][Cl] [Copper (II) chloride]	IL6 Expression Levels	1.2 ± 0.1
O=[As]O[As]=O (stereo not drawn) [Arsenic (III) oxide]	IL6 Expression Levels	1.5 ± 0.1
[Bi+3].[Bi+3].[O-2].[O-2].[O-2] [Bismuth (III) oxide]	IL6 Expression Levels	1.2 ± 0.1
CC(=O)[O-].CC(=O)[O-].[Pb+2] [Lead acetate]	IL6 Expression Levels	1.3 ± 0.3
[K+].[K+].[O]=[Cr](=[O])([O-])[O][Cr](=[O])(=[O])[O-] [Potassium dichromate]	IL6 Expression Levels	1.2 ± 0.4
[Cl][Au] [Gold (I) chloride]	IL6 Expression Levels	1.2 ± 0.2
COc1cccc2c1cc([N+](=O)[O-])c1c(C(=O)O)cc3c(c12)OCO3 [Aristolochic acid]	IL6 Expression Levels	3.9 ± 0.5
CN[C@H](CC(C)C)C(=O)N[C@H]1C(=O)N[C@@H](CC(N)=O)C(=O)N[C@H]2C(=O)N[C@H]3C(=O)N[C@H](C(=O)N[C@H](C(=O)O)c4cc(O)cc(O)c4-c4cc3ccc4O)[C@H](O)c3ccc(c(Cl)c3)Oc3cc2cc(c3O[C@@H]2O[C@H](CO)[C@@H](O)[C@H](O)[C@H]2O[C@H]2C[C@](C)(N)[C@H](O)[C@H](C)O2)Oc2ccc(cc2Cl)[C@H]1O [Vancomycin]	IL6 Expression Levels	1.5 ± 0.3

====

Test system: iPS(Foreskin)-4-derived d8 HPTC-like cells
Details: 100 μg/ml, overnight (16 h), qPCR, normalized to vehicle control (=1), mean +/- s.d., n=3
Mark rule met only when IL8 Expression Levels stays strictly below 4. Values equal to the cut-off are rule not met.

molecule	assayed.target	class.label
[Cl][Au] [Gold (I) chloride]	iPS(Foreskin)-4-derived d8 HPTC-like cells	rule met
[Cl][Cd][Cl] [Cadmium chloride]	iPS(Foreskin)-4-derived d8 HPTC-like cells	rule not met
[K+].[K+].[O]=[Cr](=[O])([O-])[O][Cr](=[O])(=[O])[O-] [Potassium dichromate]	iPS(Foreskin)-4-derived d8 HPTC-like cells	rule met
[Cl][Cu][Cl] [Copper (II) chloride]	iPS(Foreskin)-4-derived d8 HPTC-like cells	rule not met
O=[As]O[As]=O (stereo not drawn) [Arsenic (III) oxide]	iPS(Foreskin)-4-derived d8 HPTC-like cells	rule met
[Bi+3].[Bi+3].[O-2].[O-2].[O-2] [Bismuth (III) oxide]	iPS(Foreskin)-4-derived d8 HPTC-like cells	rule not met
CN[C@H](CC(C)C)C(=O)N[C@H]1C(=O)N[C@@H](CC(N)=O)C(=O)N[C@H]2C(=O)N[C@H]3C(=O)N[C@H](C(=O)N[C@H](C(=O)O)c4cc(O)cc(O)c4-c4cc3ccc4O)[C@H](O)c3ccc(c(Cl)c3)Oc3cc2cc(c3O[C@@H]2O[C@H](CO)[C@@H](O)[C@H](O)[C@H]2O[C@H]2C[C@](C)(N)[C@H](O)[C@H](C)O2)Oc2ccc(cc2Cl)[C@H]1O	iPS(Foreskin)-4-derived d8 HPTC-like cells	rule met
CC(=O)[O-].CC(=O)[O-].[Pb+2] [Lead acetate]	iPS(Foreskin)-4-derived d8 HPTC-like cells	rule not met
COc1cccc2c1cc([N+](=O)[O-])c1c(C(=O)O)cc3c(c12)OCO3	iPS(Foreskin)-4-derived d8 HPTC-like cells	rule not met
